Assay: protein stability index of a GFP-peptide fusion (yeast GPS) (PSI 1-4); higher = more stable; sorted into four equal gates, so the index is relative within each strain
Conditions: ubr1∆
assayReadout: protein stability index

INSERT INTO results (seqtext, reportedmeasurement) VALUES
  ('NNIIRIQQLISQFLKRV [SNF11]', 2.3),
  ('IKSKADAWVSAAHYNRE [PRP8]', 1.7),
  ('RTLRRKGDINPEVSMIR [RPB2]', 3.12),
  ('LLYYIPSLELSAEYLQM [YJR042W/NUP85]', 1.15),
  ('EEVQQAQTEIKLFNKWS [RPS5]', 3.27),
  ('SPIVNVLEDVYRCFAQL [RRI2]', 3.09),
  ('KYYIVSSSKSMINDENY [SRB8]', 2.81),
  ('NIPFWKHVGFELLSMGN [SRP72]', 1.27),
  ('MVMREETIKSLEDPYKY [CSN9]', 1.73),
  ('TISEKEQDILDLIAEQV [SSN2]', 2.97);

====

Listing of recorded protein stability index by entry.
Assay: protein stability index of a GFP-peptide fusion (yeast GPS) (PSI 1-4); higher = more stable; sorted into four equal gates, so the index is relative within each strain
Settings: san1∆
assayReadout: protein stability index

INSERT INTO assay_data (seqtext, assayreadout, reportedmeasurement) VALUES
  ('NNDVFTIGPYRARKDRM [SSN3]', 'protein stability index', 3.43),
  ('HVPEKKSTDLTPKGNES [MTR3]', 'protein stability index', 2.66),
  ('QDIYYLAQTLKLWRKIA [RRI2]', 'protein stability index', 1.88),
  ('GTSQNYGTATADDADIE [MED1]', 'protein stability index', 3.08),
  ('DHQHILRKLKKMNNKPE [RPC53]', 'protein stability index', 1.78),
  ('ELAQDPQTMEHYKQQIA [YCS4]', 'protein stability index', 2.1),
  ('VGLVSPSFMLKHHQLFY [RPN1]', 'protein stability index', 1.32),
  ('FLQRIDFQIDGNIFELL [RRI2]', 'protein stability index', 2.37),
  ('GQSTILVGSEIYEKLKN [CDC53]', 'protein stability index', 1.36);

====

Experiment: protein stability index of a GFP-peptide fusion (yeast GPS) (PSI 1-4); higher = more stable; sorted into four equal gates, so the index is relative within each strain
Details: pdr5∆
Listing of recorded protein stability index by entry.
assayReadout: protein stability index

INSERT INTO measurements (seqtext, assayreadout, reportedmeasurement) VALUES
  ('GLYKMMEERDGAKFENI [AAR2]', 'protein stability index', 1.87),
  ('IRGKILTGTVVSTKMHR [RPS11A]', 'protein stability index', 2.99),
  ('VLQYSDWESDLHIHLNQ [YDL116W/NUP84]', 'protein stability index', 2.61),
  ('TFNSKPVRTIVPISTSQ [SIR4]', 'protein stability index', 2.46),
  ('TISEKEQDILDLIAEQV [SSN2]', 'protein stability index', 3.25),
  ('KLINIKKFDISNDNLDL [MED1]', 'protein stability index', 3.01),
  ('TFIYGYCDKNFRENMSK [PRE3]', 'protein stability index', 2.17),
  ('YGMSITETFEKPQRTNT [RPB2]', 'protein stability index', 3.35);
